The reported numbers originate from patent US20200237766A1.

# Target Of Assay: PKM2 (Homo sapiens, UniProt P14618)
# Sequence (P14618 whole entry): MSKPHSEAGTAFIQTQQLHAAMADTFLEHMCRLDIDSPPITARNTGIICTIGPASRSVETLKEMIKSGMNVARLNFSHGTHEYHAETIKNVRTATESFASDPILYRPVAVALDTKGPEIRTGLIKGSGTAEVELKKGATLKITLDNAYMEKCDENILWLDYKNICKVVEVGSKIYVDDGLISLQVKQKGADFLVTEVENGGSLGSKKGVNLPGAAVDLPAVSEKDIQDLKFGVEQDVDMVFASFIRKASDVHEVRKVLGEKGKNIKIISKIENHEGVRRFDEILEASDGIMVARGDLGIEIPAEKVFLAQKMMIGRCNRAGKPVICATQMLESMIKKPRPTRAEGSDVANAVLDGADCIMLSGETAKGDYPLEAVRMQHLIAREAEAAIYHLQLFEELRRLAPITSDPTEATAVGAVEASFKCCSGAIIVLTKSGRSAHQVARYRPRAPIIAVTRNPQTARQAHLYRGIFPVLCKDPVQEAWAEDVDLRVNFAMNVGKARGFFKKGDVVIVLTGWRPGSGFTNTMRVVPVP
# Test Description: PKM2 activation biochemical assay (AC50 / max. response vs fructose 1,6-bisphosphate)
Readout Label: AC50 (nM)
Write the value in nM as a bare number.

Completed entries (count: 2):
Nc1cccc(Cl)c1CN(CCN1CCCC1)C(=O)c1cc(C(F)(F)F)n[nH]1
56
Nc1cccc(Cl)c1CN(CCN1CC[C@@H](F)C1)C(=O)c1cc(C(F)(F)F)n[nH]1
465

In the following, a different compound is considered.
What measured AC50 goes with "O=C(c1cc(C(F)(F)F)n[nH]1)N(Cc1cccc2[nH]cnc12)CC1CCC1" ?
828

###

# Target Of Assay: PKM2 (Homo sapiens, UniProt P14618)
# Test Description: PKM2 activation biochemical assay (AC50 / max. response vs fructose 1,6-bisphosphate)
# Experimental Parameters: % maximum response in a biochemical assay as compared with Fructose 1,6-bisphosphate
Rule: Max. Resp. (%) of 80% or more gives TRUE; anything lower gives FALSE.

Take a look at these entries with their results.
O=C(c1cc(C2CC2)n[nH]1)N(Cc1ccc(O)cc1F)CC1CCC1
TRUE
O=C(c1cc(C(F)(F)F)n[nH]1)N(CCOC1CCCC1)Cc1ccccc1F
FALSE
O=C(CCSC(=S)NCc1cccnc1)c1nccs1
FALSE
Cc1ccc2nc(Cn3c(Cc4ccccc4)nc4ccccc43)cc(=O)n2c1
TRUE
O=C(c1cc(C(F)(F)F)n[nH]1)N(Cc1ccccc1F)c1ncco1
FALSE

Form field: Max. Resp. (%) at least 80%? Entry: "CC(C)(C)CN(Cc1cccc2[nH]ccc12)C(=O)c1cc(C(F)(F)F)n[nH]1"
FALSE

Hi, just wondering whether "N#Cc1cc(C(=O)N(Cc2ccc(O)cc2F)CC2CCC2)[nH]n1" shows Max. Resp. (%) of 80% or higher.
FALSE

###

# Target Of Assay: PKM2 (Homo sapiens)
# Test Description: PKM2 activation biochemical assay (AC50 / max. response vs fructose 1,6-bisphosphate)
# Experimental Parameters: biochemical assay; read-out: PKM2 AC50
Reported values of AC50 for individual entries
Reply numerically in nM, unit not repeated.

CCN(CC)CCN(Cc1cccc(N)c1)C(=O)c1cc(C(F)(F)F)n[nH]1
1430
CCN(CC)CCCN(Cc1ccccc1Cl)C(=O)c1cc(C(F)(F)F)n[nH]1
1750
O=C(CCSC(=S)NCc1cccnc1)c1ccccc1
7640
CCN(CC)CCN(Cc1ccc(O)cc1F)C(=O)c1cc(C(F)(F)F)n[nH]1
108
O=C(c1cc(C(F)(F)F)n[nH]1)N(CCC1CCS(=O)(=O)C1)Cc1ccncc1 (centres unmarked)
58000

Then this compound:
Which measured AC50 value corresponds to CC1CCCN(CCN(Cc2ccccc2F)C(=O)c2cc(C(F)(F)F)n[nH]2)C1 (centres unmarked) ?
215

###

# Target Of Assay: PKM2 (Homo sapiens, UniProt P14618)
# Test Description: PKM2 activation biochemical assay (AC50 / max. response vs fructose 1,6-bisphosphate)
# Experimental Parameters: % maximum response in a biochemical assay as compared with Fructose 1,6-bisphosphate
Each entry below lists one item and its recorded Max. Resp. (%) value.
Field format: number, assumed %, no unit text.

These recorded examples may help you get a feel for the data.
CCN(CC)CCN(Cc1cccc(Cl)c1Cl)C(=O)c1cc(C(F)(F)F)n[nH]1 [Compound 167]
100
COCCN(Cc1ccc(O)cc1F)C(=O)c1cc(C(F)(F)F)n[nH]1 [Compound 142]
100
O=C(c1cc(C(F)(F)F)n[nH]1)N(CCO)Cc1ccc(O)cc1F [Compound 137]
70

Entry under review: CC1CCCC(C)N1CCN(Cc1ccccc1Cl)C(=O)c1cc(C(F)(F)F)n[nH]1 (stereo not drawn) [Compound 212] . Reported Max. Resp. (%)?
53

Given the entry O=C(c1cc(C(F)(F)F)n[nH]1)N(Cc1ccccc1F)C1CCOCC1 [Compound 22] , report its measured Max. Resp. (%).
99

Requested read-out: Max. Resp. (%). Entry: O=C(CCSC(=S)NCc1cccnc1)c1cccs1 [PMA26]
20

I'd like to know its Max. Resp. (%). The molecule in question is O=C(c1cc(C(F)(F)F)n[nH]1)N(CCC1CCS(=O)(=O)C1)Cc1cccc(F)c1 (stereo not drawn) [Compound 67]
95

Requested field: Max. Resp. (%). Item: O=C(c1cc(C(F)(F)F)n[nH]1)N(CCN1CCS(=O)(=O)CC1)Cc1c(Cl)cccc1Cl [Compound 110]
84

Requested read-out: Max. Resp. (%). Entry: Nc1ccc(CN(CCN2CCCCCC2)C(=O)c2cc(C(F)(F)F)n[nH]2)c(Cl)c1 [Compound 207]
75

###

# Target Of Assay: PKM2 (Homo sapiens)
# Test Description: PKM2 activation biochemical assay (AC50 / max. response vs fructose 1,6-bisphosphate)
# Experimental Parameters: biochemical assay; read-out: PKM2 AC50
Readout Label: AC50 (µM)
Report as a plain number; the unit µM is understood.

Example entries begin here.
COCCCN(Cc1ccccc1Cl)C(=O)c1cc(C(F)(F)F)n[nH]1
9.59
O=C(CCSC(=S)NCc1cccnc1)c1ccccc1Cl
5.61
O=C(CCSC(=S)NCc1cccnc1)c1cnc2ccccn12
18.1
CC1CCCCN1CCN(Cc1ccccc1Cl)C(=O)c1cc(C(F)(F)F)n[nH]1 (stereo not drawn)
0.104
CCN(CC)CCN(Cc1cccc2[nH]ccc12)C(=O)c1cc(C(F)(F)F)n[nH]1
0.076
O=C(c1cc(Cl)n[nH]1)N(Cc1cccc2[nH]c(=O)sc12)CC1CCC1
15.4

Now for a further compound.
Request the reported AC50 associated with "O=C(c1cc(C(F)(F)F)n[nH]1)N(CCOC1CCCC1)Cc1ccccc1F"
47

###

# Target Of Assay: PKM2 (Homo sapiens)
# Test Description: PKM2 activation biochemical assay (AC50 / max. response vs fructose 1,6-bisphosphate)
# Experimental Parameters: biochemical assay; read-out: PKM2 AC50
Readout Label: log10 of AC50 (log10 of the value in nM)
Values reflect log10 of reported AC50 (nM).

O=C(c1cc(C(F)(F)F)n[nH]1)N(CCC1CCS(=O)(=O)C1)Cc1cccc([N+](=O)[O-])c1Cl (centres unmarked)
3.38
CN1CCC(CN(Cc2ccccc2F)C(=O)c2cc(C(F)(F)F)n[nH]2)CC1
5.00
Cc1cccc2nc(Cn3cnc4ccccc43)cc(=O)n12
2.20
O=C(c1cc(C(F)(F)F)n[nH]1)N(CCN1CCCC1)Cc1c(F)cccc1Cl
2.26
O=C(c1cc(C(F)(F)F)n[nH]1)N(Cc1ccc(O)cc1F)CC1CCC1
1.79
Cn1cc(C(=O)c2cccc(Cl)c2Cl)cc1C(N)=O
4.23
Nc1cccc(Cl)c1CN(CCN1CCC(O)C1)C(=O)c1cc(C(F)(F)F)n[nH]1 (centres unmarked)
2.05
O=C(c1cc(C(F)(F)F)n[nH]1)N(CCN1CCCCC1)Cc1c(F)cccc1Cl
2.12

Endpoint output: log10 of AC50 of "CO[C@H]1CC[C@H](N(Cc2cc(F)cc(F)c2)C(=O)c2cc(C(F)(F)F)n[nH]2)CC1" . Value?
4.70

For the compound shown here, O=C(c1cc(C(F)(F)F)n[nH]1)N(CCC1CCS(=O)(=O)C1)Cc1ccccc1F (centres unmarked) , give the reported log10 of AC50.
2.38

###

# Target Of Assay: PKM2 (Homo sapiens, UniProt P14618)
# Test Description: PKM2 activation biochemical assay (AC50 / max. response vs fructose 1,6-bisphosphate)
# Experimental Parameters: % maximum response in a biochemical assay as compared with Fructose 1,6-bisphosphate
Readout Label: Max. Resp. (%)

O=C(CCSC(=S)NCc1cccnc1)c1ccco1
107%

Item CC(c1ccccc1)N(CC1CCC1)C(=O)c1cc(N)n[nH]1 (stereo not drawn) with PKM2 (Homo sapiens, UniProt P14618) - Max. Resp. (%)?
52%

Which Max. Resp. (%) is reported with PKM2 (Homo sapiens, UniProt P14618) for this entry: "O=C(c1cc(Br)n[nH]1)N(Cc1ccc(O)cc1F)CC1CCC1" ?
100%

###

# Target Of Assay: PKM2 (Homo sapiens)
# Test Description: PKM2 activation biochemical assay (AC50 / max. response vs fructose 1,6-bisphosphate)
# Experimental Parameters: % maximum response in a biochemical assay as compared with Fructose 1,6-bisphosphate
Readout Label: Max. Resp. (%)
Give the quantity in %, number only.

Worked cases, answers included:
O=C(c1cc(C(F)(F)F)n[nH]1)N(CCN1CCCCCC1)Cc1ccccc1Cl
100
O=C(c1cc(C(F)(F)F)n[nH]1)N(CCN1CCS(=O)(=O)CC1)Cc1cccc(F)c1F
64
CC1CCCCN1CCN(Cc1ccccc1F)C(=O)c1cc(C(F)(F)F)n[nH]1 (stereo not drawn)
100
O=C(c1cc(C(F)(F)F)n[nH]1)N(Cc1cccc2[nH]ccc12)NC1CCC1
100
O=C(c1cc(C(F)(F)F)n[nH]1)N(CCC1CCSCC1)Cc1ccccc1Cl
79

I'd like to know its Max. Resp. (%). The compound in question is O=C(c1cc(C(F)(F)F)n[nH]1)N(CCC1CCOC1)Cc1ccccc1F (stereo not drawn)
99
